// reported pIC50 for each item listed
# Test system: LOX-IMVI cells
# measurementNotes: Cell proliferation assay (alamarBlue), LOX-IMVI
# Type: cell-based
# experimentalSetup: Homo sapiens, 72 hours incubation, inhibition of cell proliferation
pIC50: −log10 of the molar value.
measuredAttribute: pIC50

INSERT INTO measurements (compound, systemtested, numericvalue) VALUES
  ('CNC(=O)N1N=C(c2ccc(-n3nc(-c4ccccc4)cc3C)cc2)c2cc(OC)c(OC)cc2C[C@@H]1C [Example 147.1]', 'LOX-IMVI cells', 6.29),
  ('CNC(=O)N1N=C(c2ccc(N3CCOCC3)cc2)c2cc(OC)c(OC)cc2CC1C (racemic) [Example 7]', 'LOX-IMVI cells', 6.24),
  ('CNC(=O)N1N=C(c2ccc(N3CCN(S(C)(=O)=O)CC3)cc2)c2cc(OC)c(OC)cc2CC1C (racemic) [Example 135]', 'LOX-IMVI cells', 6.44),
  ('CNC(=O)N1N=C(c2ccc(N3CCOCC3)cc2)c2cc(OC)c(OC)cc2C[C@@H]1C [Example 7.2]', 'LOX-IMVI cells', 6.72),
  ('CNC(=O)N1N=C(c2ccc(N3CCN(C)CC3)cc2)c2cc(OC)c(OC)cc2C[C@@H]1C [Example 127.1]', 'LOX-IMVI cells', 6.54),
  ('CNC(=O)N1N=C(c2ccc(-c3cc[nH]n3)cc2)c2cc(OC)c(OC)cc2CC1C (racemic) [Example 3]', 'LOX-IMVI cells', 6.02),
  ('CNC(=O)N1N=C(c2ccc(-c3c(C)noc3C)cc2)c2cc(Cl)c(OC)cc2CC1C (racemic) [Example 157]', 'LOX-IMVI cells', 6.24);

====

# systemTested: BRD4 (BD1) (Homo sapiens, UniProt O60885)
# Construct: with relatively long constructs also being possible, preferably amino acids 44-168
# measurementNotes: Binding assay BRD4/acetylated peptide H4 (TR-FRET protein-protein interaction assay)
measuredAttribute: IC50 (nM)

INSERT INTO results (compound, unitstext, numericvalue) VALUES
  ('CNC(=O)N1N=C(c2ccc(N3CC(C)(O)C3)cc2)c2cc(OC)c(OC)cc2CC1C (racemic)', 'nM', 70),
  ('CNC(=O)N1N=C(c2ccc(Cl)cc2)c2ccc(-c3c(C)noc3C)cc2CC1C (racemic)', 'nM', 2690),
  ('CNC(=O)N1N=C(c2ccc(-c3ccc(S(=O)(=O)NC)cc3)cc2)c2cc(OC)c(OC)cc2CC1C (racemic)', 'nM', 50),
  ('CNC(=O)N1N=C(c2ccc(N3CC(F)C3)cc2)c2cc(OC)c(OC)cc2C[C@H]1C', 'nM', 6620),
  ('CNC(=O)N1N=C(c2cccc(N3CC(F)(F)C3)c2)c2cc(OC)c(OC)cc2CC1C (racemic)', 'nM', 70),
  ('CNC(=O)N1N=C(c2ccc(-n3nc(-c4ccccc4)cc3C3CC3)cc2)c2cc(OC)c(OC)cc2CC1C (racemic)', 'nM', 40),
  ('CNC(=O)N1N=C(c2ccc(-c3cc(O)cc(F)c3)cc2)c2cc(OC)c(OC)cc2CC1C (racemic)', 'nM', 90),
  ('CNC(=O)N1N=C(c2ccc(-c3ccnn3C)cc2)c2cc(OC)c(OC)cc2CC1C (racemic)', 'nM', 60),
  ('CNC(=O)N1N=C(c2ccc(F)c(N3CCOCC3)c2)c2cc(OC)c(OC)cc2CC1C (racemic)', 'nM', 190),
  ('CNC(=O)N1N=C(c2ccc(Cl)cc2)c2cc(N3CCOCC3)ccc2C[C@H]1C', 'nM', 2510),
  ('CC[C@@H]1Cc2cc(OC)c(OC)cc2C(c2ccc(N3CCN(S(C)(=O)=O)CC3)cc2)=NN1C(=O)NC', 'nM', 11200),
  ('CNC(=O)N1N=C(c2ccc(-c3nc(C)no3)cc2)c2cc(OC)c(OC)cc2CC1C (racemic)', 'nM', 190),
  ('CNC(=O)N1N=C(c2ccc(-c3ccc(S(=O)(=O)NC4CC4)cc3)cc2)c2cc(OC)c(OC)cc2CC1C (racemic)', 'nM', 70),
  ('CNC(=O)N1N=C(c2ccc(N3CCN(C)CC3)cc2)c2cc(OC)c(OC)cc2C[C@H]1C', 'nM', 8800),
  ('CCOC(=O)N1N=C(c2ccc(N3CCN(C)CC3)cc2)c2cc(OC)c(OC)cc2CC1C (racemic)', 'nM', 6490);
